# protocol-summary: qHTS Screen of the MIPE 4.0 Collection Against Ewings Sarcoma (TC71) (AID 1259253); further: nearly all actives have a fitted effect of over 40% in size
# conditions: TC71 Ewing sarcoma viability, CellTiter-Glo, 48 h; series mostly up to 45.8 µM
Inconclusive results are not listed. Activity calls are given as the source filed them. The call rests on the fitted dose curve; in most records, active means well fitted inhibition curve with a large enough effect; inconclusive means small, poorly fitted or top-dose-only effect; inactive means no such curve, though single readings can be large or run the other way.
Labels: 1 = active, -1 = inactive

# compound, label-value
data = [
    ("COc1cc2c(Oc3ccc(NC(=O)C4(C(=O)Nc5ccc(F)cc5)CC4)cc3F)ccnc2cc1OCCCN1CCOCC1", 1),
    ("C=CC(=O)Nc1cccc(Oc2nc(Nc3ccc(N4CCN(C)CC4)cc3)ncc2Cl)c1", 1),
    ("CNC(=O)CN1CCC(Oc2cc3c(Nc4cccc(Cl)c4F)ncnc3cc2OC)CC1", 1),
    ("C=CC(=O)N1CCC[C@@H](n2nc(-c3ccc(Oc4ccccc4)cc3)c3c(N)ncnc32)C1", 1),
    ("CN(C1CCc2c(c3ccccc3n2CC(=O)O)C1)S(=O)(=O)c1ccc(F)cc1 (stereo not given)", -1),
]

---

# protocol-summary: Quantitative High-Throughput drug screen in 47 multiple myeloma cell lines against the NCATS MIPE library collection: U266_ATCC cell viability assay (AID 1919864); further: nearly all actives have a fitted effect of over 35% in size
# conditions: U266 myeloma viability, CellTiter-Glo ATP luminescence, 48 h; series mostly up to 45.8 µM
# From the text: PI: Beverly A. Mock Ph.D. Laboratory of Cancer Biology and Genetics, Center for Cancer Research, National Cancer Institute, National Institute of Health, Bethesda, Maryland […] 5; Detector; 425V; Luminescence; Viewlux PerkinElmer. […] 1. […] Briefly, the corresponding myeloma cell lines were screened in 1,536-well plates with 500 cells, 5-uL per well for inhibition of cell viability (assessed by measuring ATP levels with CellTiterGlo). […]
Records with an inconclusive call do not appear. The source made the active and inactive calls. Calls come from the whole dose curve; as a rule, active = well fitted cell-killing curve with a large enough effect; inconclusive = small, poorly fitted or top-dose-only effect, or effect the other way; inactive = no such curve, though single readings can be large or run the other way.
Labels: TRUE = active, FALSE = inactive

# compound, label-value
data = [
    ("C=C1C(=CC=C2CCC[C@]3(C)[C@@H]([C@H](C)C=C[C@H](C)C(C)C)CC[C@@H]23)C[C@@H](O)C[C@@H]1O", "TRUE"),
    ("CCOC(=O)C1=C(C)NC2=C(C(=O)CC(C)(C)C2)C1c1ccc(-c2ccccc2)cc1 (stereo not drawn)", "TRUE"),
    ("CC1(C)CCC(c2ccc(Cl)cc2)=C(CN2CCN(c3ccc(C(=O)NS(=O)(=O)c4ccc(N[C@H](CCN5CCOCC5)CSc5ccccc5)c(S(=O)(=O)C(F)(F)F)c4)cc3)CC2)C1", "TRUE"),
    ("COc1cc2c(cc1-c1c(C)noc1C)ncc1[nH]c(=O)n([C@H](C)c3ccccn3)c12", "TRUE"),
    ("O=C(Nc1cn[nH]c1-c1nc2ccc(CN3CCOCC3)cc2[nH]1)NC1CC1", "TRUE"),
    ("CC(=O)c1c(C)c2cnc(Nc3ccc(N4CCNCC4)cn3)nc2n(C2CCCC2)c1=O", "TRUE"),
    ("O=c1c2ccccc2nc2n1CCc1c-2[nH]c2ccccc12", "FALSE"),
    ("Cc1cc(Nc2cc(N3CCN(C)CC3)nc(C=Cc3ccccc3)n2)n[nH]1", "TRUE"),
    ("COc1cc2c(NC3CCN(C(C)C)CC3)nc(C3CCCCC3)nc2cc1OCCCN1CCCC1", "TRUE"),
    ("CNC(=O)c1ccc(-c2cnc3ncc(Cc4ccc5ncccc5c4)n3n2)cc1F", "FALSE"),
    ("CC(C)c1ccc(Cn2ccc3c4c(N)nc(NC5CC5)nc4ccc32)cc1", "TRUE"),
    ("Cc1cc(N2CCOCC2)cc2[nH]c(-c3c(NC[C@@H](O)c4cccc(Cl)c4)cc[nH]c3=O)nc12", "TRUE"),
    ("CC1=C(CO)C(=O)O[C@@H]([C@@H](C)[C@H]2CC[C@H]3[C@@H]4C[C@H]5O[C@]56[C@@H](O)C=CC(=O)[C@]6(C)[C@@H]4CC[C@]23C)C1", "TRUE"),
    ("C=CC(=O)Nc1cc2c(Nc3ccc(F)c(Cl)c3)ncnc2cc1C#CC(C)(C)N1CCN(C)CC1", "TRUE"),
    ("c1cc(-c2cnn3cc(-c4ccc(OCCN5CCCCC5)cc4)cnc23)ccn1", "TRUE"),
    ("COc1cccc(-c2ccc(NC(=O)C3=C(C(=O)O)CCC3)c(F)c2)c1", "TRUE"),
    ("CN(C)CCCN=c1c2ccccc2n(C)c2[nH]c(=O)n(C)c(=O)c12", "TRUE"),
    ("Cn1c(CNc2ccc(C(=N)N)cc2)nc2cc(C(=O)N(CCC(=O)O)c3ccccn3)ccc21", "FALSE"),
]

---

# protocol-summary: qHTS Screen of the MIPE 4.0 Collection Against Ewings Sarcoma (TC32) (AID 1259256); further: nearly all actives have a fitted effect of over 45% in size
# conditions: TC32 Ewing sarcoma viability, CellTiter-Glo, 48 h; series mostly up to 45.8 µM
Inconclusive results are not listed. The source made the active and inactive calls. Calls come from the whole dose curve; as a rule, active = well fitted inhibition curve with a large enough effect; inconclusive = small, poorly fitted or top-dose-only effect; inactive = no such curve, though single readings can be large or run the other way.
Labels: 1 (yes) (active), 0 (no) (inactive)

# compound, label-value
rows = [
    ("CCCn1c(=O)c2[nH]c(-c3cnn(Cc4cccc(C(F)(F)F)c4)c3)nc2n(CC)c1=O", "0 (no)"),
    ("O=C(Cc1ccc(-c2ccc(OCCN3CCOCC3)cc2)cn1)NCc1ccccc1", "1 (yes)"),
    ("CN1CCN(c2ccc3nc(-c4c(N)c5c(F)cccc5[nH]c4=O)[nH]c3c2)CC1", "1 (yes)"),
    ("COc1cc2nccc(Oc3ccc(NC(=O)C4(C(=O)Nc5ccc(F)cc5)CC4)cc3)c2cc1OC", "1 (yes)"),
    ("Cc1cc(Nc2cc(NC(=O)c3c(Cl)cccc3Cl)ccn2)nc(N)n1", "1 (yes)"),
    ("Cn1c(CNc2ccc(C(=N)N)cc2)nc2cc(C(=O)N(CCC(=O)O)c3ccccn3)ccc21", "0 (no)"),
    ("Cc1ccc(-c2ncn(-c3ccc(Nc4nccc(-c5cccc(N6CCOCC6)c5)n4)cc3)n2)cn1", "1 (yes)"),
    ("C1Cc2[nH]nc(-c3nn[nH]n3)c2C1", "0 (no)"),
    ("COC(=O)C1=C(C)NC(C)=C(C(=O)OCCN2CCN(C(c3ccccc3)c3ccccc3)CC2)C1c1cccc([N+](=O)[O-])c1 (stereo not drawn)", "0 (no)"),
    ("c1nc2nc(Nc3ccc(N4CCOCC4)cc3)nc(NC3CCCCC3)c2[nH]1", "1 (yes)"),
    ("CC(C)C[C@H](NC(=O)CNC(=O)c1cc(Cl)ccc1Cl)B(O)O", "1 (yes)"),
    ("C[C@H]1C[C@@H]2[C@@H]([C@@H](O)C[C@@]3(C)[C@H]2CC[C@]3(O)C(=O)CO)[C@@]2(C)C=CC(=O)C=C12", "0 (no)"),
    ("Cn1c(=O)n(-c2ccc(C(C)(C)C#N)cc2)c2c3cc(-c4cnc5ccccc5c4)ccc3ncc21", "1 (yes)"),
    ("CCC[C@H](NC(=O)C(C#N)=Cc1cccc(Br)n1)c1ccccc1", "1 (yes)"),
    ("Nc1ncnc2c1c(-c1cccc(OCc3ccccc3)c1)cn2C1CC(CN2CCCC2)C1 (stereo not drawn)", "1 (yes)"),
    ("C[C@@H]1CN(CC(=O)Nc2ccc3c(c2)Cc2cccc(-c4cc(=O)cc(N5CCOCC5)o4)c2S3)C[C@H](C)O1", "1 (yes)"),
    ("Cc1cn(-c2cc(NC(=O)c3ccc(C)c(Nc4nccc(-c5cccnc5)n4)c3)cc(C(F)(F)F)c2)cn1", "0 (no)"),
    ("COc1cc(C(=O)NS(=O)(=O)c2ccccc2C)ccc1Cc1cn(C)c2ccc(NC(=O)OC3CCCC3)cc12", "1 (yes)"),
    ("CCOC(=O)C1=C(C)NC2=C(C(=O)CC(C)(C)C2)C1c1ccc(-c2ccccc2)cc1 (stereo not drawn)", "1 (yes)"),
    ("COC(=O)C[C@](O)(CCCC(C)(C)O)C(=O)O[C@@H]1C(OC)=C[C@]23CCCN2CCc2cc4c(cc2[C@H]13)OCO4", "0 (no)"),
    ("COc1ccc(CC2SC(=O)NC2=O)cc1C(=O)NCc1ccc(C(F)(F)F)cc1 (stereo not drawn)", "0 (no)"),
    ("Cc1ccc(S(=O)(=O)Nc2cc(Cl)ccc2C(=O)Nc2nc(-c3ccccc3)cs2)cc1", "1 (yes)"),
    ("O=C(O)c1ccc2c(c1)nc(Nc1cccc(Cl)c1)c1ccncc12", "1 (yes)"),
    ("COc1cc2c(Oc3ccc4[nH]c(C)cc4c3F)ncnc2cc1OCCCN1CCCC1", "1 (yes)"),
    ("CC(C)(C)c1cnc(CSc2cnc(NC(=O)C3CCNCC3)s2)o1", "1 (yes)"),
    ("CN(C)Cc1c(C(=O)NCCOc2ccc(C(=O)NO)cc2)oc2ccccc12", "1 (yes)"),
    ("Cc1ccc(C(N)=O)cc1Nc1nccc(-c2cn(C(C)C)c3cnccc23)n1", "1 (yes)"),
    ("Cc1cc(CN2CCN(c3c(Br)cnc4nc(-c5ccc(N6CCN(C)CC6)cc5)[nH]c34)CC2)no1", "1 (yes)"),
    ("O=C(C=Cc1cccc(S(=O)(=O)Nc2ccccc2)c1)NO", "1 (yes)"),
    ("Cc1c(NC(=O)OC[C@@H]2COCCN2)cn2ncnc(Nc3ccc4c(cnn4Cc4cccc(F)c4)c3)c12", "1 (yes)"),
    ("O=C(CCCCCCNC(=O)c1cnc(N(c2ccccc2)c2ccccc2)nc1)NO", "1 (yes)"),
    ("COC(=O)Nc1ccc(-c2nc(N3CCOCC3)c3cnn(C4CCN(Cc5cccnc5)CC4)c3n2)cc1", "1 (yes)"),
    ("O=C(O)C1(Cc2cccc(Nc3nccs3)n2)CCC(Oc2cccc(Cl)c2F)CC1 (stereo not drawn)", "1 (yes)"),
    ("O=C(O)CCCc1c[nH]c2ccccc12", "0 (no)"),
    ("CC(O)C1C(=O)N2C(C(=O)O)=C(SC3CNC(C(=O)N(C)C)C3)C(C)C12 (stereo not drawn)", "0 (no)"),
    ("CCCCOc1c(C(=O)c2c(F)cc(C)cc2F)cnc2n[nH]cc12", "1 (yes)"),
    ("COc1cc(C(=O)N2CCC(N3CCN(C)CC3)CC2)ccc1Nc1ncc2c(n1)N(C)c1ccccc1C(=O)N2C", "1 (yes)"),
    ("Cc1ccc(CN2CCNCC2)cc1NC(=O)CNc1ccc(F)c(F)c1", "1 (yes)"),
]

Entry source: PubChem BioAssay (NCATS)
